biological target: panel of 442 kinases (Homo sapiens); construct: purchased KINOMEscan; type: binding; details: Compound Concentration 10 µM
Sequence (Q6P3R8 whole entry): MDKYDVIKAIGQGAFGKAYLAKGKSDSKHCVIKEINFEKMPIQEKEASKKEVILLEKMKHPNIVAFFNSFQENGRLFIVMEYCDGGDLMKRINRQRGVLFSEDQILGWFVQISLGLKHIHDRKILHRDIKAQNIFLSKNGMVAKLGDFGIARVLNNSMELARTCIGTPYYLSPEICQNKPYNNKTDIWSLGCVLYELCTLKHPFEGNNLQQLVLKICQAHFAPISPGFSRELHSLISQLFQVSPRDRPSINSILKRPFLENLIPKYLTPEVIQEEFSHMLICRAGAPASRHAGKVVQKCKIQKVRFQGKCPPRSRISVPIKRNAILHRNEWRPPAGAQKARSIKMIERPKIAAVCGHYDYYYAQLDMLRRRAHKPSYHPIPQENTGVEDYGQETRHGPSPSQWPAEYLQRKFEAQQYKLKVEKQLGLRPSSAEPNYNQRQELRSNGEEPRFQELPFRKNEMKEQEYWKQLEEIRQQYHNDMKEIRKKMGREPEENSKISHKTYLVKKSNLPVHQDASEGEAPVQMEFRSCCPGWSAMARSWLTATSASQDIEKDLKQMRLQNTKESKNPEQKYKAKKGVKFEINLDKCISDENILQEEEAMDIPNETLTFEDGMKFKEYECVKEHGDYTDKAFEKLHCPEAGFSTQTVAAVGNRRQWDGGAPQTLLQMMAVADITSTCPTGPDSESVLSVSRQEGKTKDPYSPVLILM
# KINOMEscan: NEK5 values compiled below
experimental_endpoint: KINOMEscan: NEK5

- molecule: "COc1cc(C(=O)N2CCC(N3CCN(C)CC3)CC2)ccc1Nc1ncc2c(n1)N(C1CCCC1)c1ccccc1C(=O)N2C [Compound 25]"
  endpoint_result: 100
- molecule: "COc1cc(C(=O)N2CCC(N3CCN(C)CC3)CC2)ccc1Nc1ncc2c(n1)N(C)c1ccccc1C(=O)N2C [15 (LRRK2-IN-1)]"
  endpoint_result: 100
- molecule: "CCOc1cc(C(=O)N2CCC(N3CCN(C)CC3)CC2)ccc1Nc1ncc2c(n1)N(C1CCCC1)c1ccccc1C(=O)N2C [Compound 26]"
  endpoint_result: 100
- molecule: "COc1cc(C(=O)N2CCC(N3CCN(C)CC3)CC2)ccc1Nc1ncc2c(n1)N1CCc3cccc(c31)C(=O)N2C [Compound 24]"
  endpoint_result: 57

Where these numbers come from: paper PMC3914206
